System: Fusarium proliferatum
Experiment: Growth of Fusarium proliferatum (OD620) in the fumonisin test
Format: cell-based
Settings: OD620 at the beginning and after 6 days
# pI50 growth per record follows
Endpoint: pI50 growth

compound="CN(c1nc(Nc2cccc(C3OCCO3)c2)ncc1Cl)C1CC1 [Example 23]" endpoint="pI50 growth" readout_value=4.9
compound="CC1(c2cccc(Nc3ncc(Cl)c(NC4CC4)n3)c2)OCCCO1 [Example 6]" endpoint="pI50 growth" readout_value=5.5
compound="COCC1COC(c2cccc(Nc3ncc(C(F)(F)F)c(NC4CC4)n3)c2)O1 (stereo not shown) [Example 105]" endpoint="pI50 growth" readout_value=5.5
compound="CC(C)(C)C1COC(c2cccc(Nc3ncc(Cl)c(NC4CC4)n3)c2)O1 (stereo not shown) [Example 30]" endpoint="pI50 growth" readout_value=5.3
compound="FC(F)(F)c1cnc(Nc2cccc(C3OCCO3)c2)nc1NC1CCC1 [Example 22]" endpoint="pI50 growth" readout_value=5.5
compound="FC(F)(F)c1cnc(Nc2cccc(C3OCCO3)c2)nc1NC1CC1 [Example 24]" endpoint="pI50 growth" readout_value=5.5
compound="CC1OC(c2cccc(Nc3ncc(Br)c(NC4CC4)n3)c2)OC1C (stereo not shown) [Example 14]" endpoint="pI50 growth" readout_value=5.5
